# assay-method-text: NCI Yeast Anticancer Drug Screen. Data for the mlh1 rad18 strain (AID 175)
# cond: S. cerevisiae mlh1 rad18 strain growth inhibition; at 50.0 µM (retest, dose inferred, filed as 5.0); stronger effect = higher value
Compounds without any hit were thinned out: in the full panel of roughly 79,000, 15% have a hit.
# binning rule on growth inhibition: low bracket (below 60%), middle bracket (60% to below 90%), high bracket (90% or more)

The examples below pair each entry with its known result.
1. CC(=O)Oc1ccc2c(c1)Cc1cc(N3C(=O)C=CC3=O)ccc1-2 ... high bracket
2. Clc1nc(Cl)nc(Nc2cccc3ccccc23)n1 ... high bracket
3. O=C1c2ccccc2C(=O)c2c(O)c(NCCNCCO)cc(O)c21 ... high bracket
4. O=c1[nH]c2c([N+](=O)[O-])cccc2c2ccccc12 ... low bracket
5. O=C(O)C(=Cc1ccc(-c2ccccc2)cc1)C(=O)O ... low bracket

For the record `CCCNC(=O)OCc1c(COC(=O)NCCC)c(-c2ccc(Cl)c(Cl)c2)n2c1CCC2` , report the class its growth inhibition corresponds to.
middle bracket

For the record `CCCCCCCCSC1=C(Cl)C(=O)C(OC)=C(OC)C1=O` , report the class its growth inhibition corresponds to.
middle bracket

For the record `Cc1ccccc1NC(=O)c1c(C)oc2c1C(=O)c1ccccc1C2=O` , report the class its growth inhibition corresponds to.
middle bracket

For the record `Cc1oc2ccccc2c(=O)c1Cn1nnc2ccccc21` , report the class its growth inhibition corresponds to.
low bracket

Origin of the recorded values: PubChem BioAssay (NCI)
